# Test name: in vivo
# Test parameters: female, ICR, mouse, po, 5 mg/kg, t1/2, plasma, 5 mg/kg oral, calculated 2 - 12h
Endpoint name: half-life (h)
Record the value in h, omitting the unit from your answer.

Give the measured half-life for O=C1CCc2c(OC[C@]3(O)CCN(c4c(F)cc(Cl)cc4F)C[C@H]3O)ccc(F)c2N1
2.1

----------
# Test name: in vivo
# Test parameters: female, ICR, mouse, po, 1.25 mg/kg, t1/2, plasma, 1.25 mg/kg oral, calculated 2 - 12h
Endpoint name: half-life (h)
Number in h, nothing else.

Identify measured half-life corresponding to O=C1CCc2c(OC[C@]3(O)CCN(c4c(F)cc(Cl)cc4F)C[C@H]3O)ccc(F)c2N1
1.5

----------
# Test name: in vivo
# Test parameters: female, ICR, mouse, po, half-life (t1/2), plasma, oral doses 0.625 to 10 mg/kg
Endpoint name: half-life

Give the reported half-life for this molecule. O=C1CCc2c(OC[C@]3(O)CCN(c4c(F)cc(Cl)cc4F)C[C@H]3O)ccc(F)c2N1
1.3 to 2.1 h

----------
# Tested on: M. bovis ATCC BAA-935
# Test name: microbe, parasite or virus in culture
# Format: cell-based
# Test parameters: Mycobacterium tuberculosis variant bovis, ATCCBAA935
Endpoint name: MIC
Could you give the number and then its unit, please?

| Compound | Result |
| --- | --- |
| C[C@H]1COc2c(N3CCN(C)CC3)c(F)cc3c(=O)c(C(=O)O)cn1c23 [LVX, levofloxacin] | 0.25 µg/mL |
| COc1c(N2C[C@@H]3CCCN[C@@H]3C2)c(F)cc2c(=O)c(C(=O)O)cn(C3CC3)c12 [MXF, moxifloxacin] | 0.13 µg/mL |
| COc1nc2ccc(Br)cc2cc1[C@@H](c1ccccc1)[C@@](O)(CCN(C)C)c1cccc2ccccc12 [BDQ, bedaquiline] | 0.13 µg/mL |
| CC(=O)NC[C@H]1CN(c2ccc(N3CCOCC3)c(F)c2)C(=O)O1 [LZD, linezolid] | 0.5 µg/mL |
| O=C1CCc2c(OC[C@]3(O)CCN(c4c(F)cc(Cl)cc4F)C[C@H]3O)ccc(F)c2N1 [OPC-167832] | 0.002 µg/mL |

Give MIC for C[C@]1(COc2ccc(N3CCC(Oc4ccc(OC(F)(F)F)cc4)CC3)cc2)Cn2cc([N+](=O)[O-])nc2O1 [DMD, delamanid]
0.004 µg/mL

Specify measured MIC for CO[C@H]1/C=C/O[C@@]2(C)Oc3c(C)c(O)c4c(O)c(c(/C=N/N5CCN(C)CC5)c(O)c4c3C2=O)NC(=O)/C(C)=C\C=C\[C@H](C)[C@H](O)[C@@H](C)[C@@H](O)[C@@H](C)[C@H](OC(C)=O)[C@@H]1C [RIF, rifampin] .
0.063 µg/mL

----------
# Test name: in vivo
# Test parameters: female, ICR, mouse, po, 2.5 mg/kg
Endpoint name: AUC(0-t) (ng·h/mL)
Report as a plain number; the unit ng·h/mL is understood.

Give the measured AUC(0-t) for O=C1CCc2c(OC[C@]3(O)CCN(c4c(F)cc(Cl)cc4F)C[C@H]3O)ccc(F)c2N1
1140

----------
Measured log10(MIC), listed per entry for reference.
# Tested on: M. tuberculosis ATCC 35812 (Kurono)
# Test name: MIC by agar proportion method, standard strain
# Assay type: cell-based
# Test parameters: Mycobacterium tuberculosis, ATCC35812; ATCC 35812 (Kurono); agar proportion method; read-out: MIC
Heads up, the numbers here are log10 of MIC in µg/mL units.

Known log10(MIC) results, listed for orientation:
| Record smiles | Numeric value |
| --- | --- |
| O=C1CCc2c(OC[C@]3(O)CCN(c4c(F)cc(Cl)cc4F)C[C@H]3O)ccc(F)c2N1 | -3.30 |
| COc1nc2ccc(Br)cc2cc1[C@@H](c1ccccc1)[C@@](O)(CCN(C)C)c1cccc2ccccc12 | -1.20 |
| C[C@H]1COc2c(N3CCN(C)CC3)c(F)cc3c(=O)c(C(=O)O)cn1c23 | -0.30 |
| C[C@]1(COc2ccc(N3CCC(Oc4ccc(OC(F)(F)F)cc4)CC3)cc2)Cn2cc([N+](=O)[O-])nc2O1 | -2.40 |

Consider now this further compound.
Note log10(MIC) for the compound shown: COc1c(N2C[C@@H]3CCCN[C@@H]3C2)c(F)cc2c(=O)c(C(=O)O)cn(C3CC3)c12
-0.89
